Values compiled from patent US12583818B2.

- Test system: A2780-SP cells (ovarian cancer stem cells)
- ASSAY COMMENT: Sphere cell viability of A2780-SP cells (Cell-titer Glo)
- Assay type: cell-based
- MEASUREMENT PARAMETERS: 192 h; sphere cell viability, culture for 8 days; read-out: A2780-SP
pIC50: −log10 of the molar value.
Listing: pIC50 of selected molecules
RECORDED ENDPOINT: pIC50

{"LINE NOTATION": "CN1CCN(c2ccnc(Nc3ccc(S(=O)(=O)NCCCc4c[nH]c5ccc(Cl)cc45)cc3)c2)CC1", "RECORDED ENDPOINT": "pIC50", "TEST RESULT": "5.00 to 6.00"}
{"LINE NOTATION": "O=S(=O)(NCCCc1c[nH]c2ccc(Cl)cc12)c1ccc(OCCCN2CCCNCC2)c(F)c1", "RECORDED ENDPOINT": "pIC50", "TEST RESULT": "> 6.00"}
{"LINE NOTATION": "O=S(=O)(NCCCc1c[nH]c2ccc(Cl)cc12)c1ccc(OCCCn2cncn2)cc1", "RECORDED ENDPOINT": "pIC50", "TEST RESULT": "< 5.00"}
{"LINE NOTATION": "CN1CCN(CCCOc2ccc(S(=O)(=O)NCCCc3c[nH]c4cc(Cl)c(Cl)cc34)cc2)CC1", "RECORDED ENDPOINT": "pIC50", "TEST RESULT": "> 6.00"}

----------
- TARGET OR SYSTEM: Pin1 (Homo sapiens, UniProt Q13526)
- Construct: purchased Anaspec
- Sequence (Q13526 whole entry): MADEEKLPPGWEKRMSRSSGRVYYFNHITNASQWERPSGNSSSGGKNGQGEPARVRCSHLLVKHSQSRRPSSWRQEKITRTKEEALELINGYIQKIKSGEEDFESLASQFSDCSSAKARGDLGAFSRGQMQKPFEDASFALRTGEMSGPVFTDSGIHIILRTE
- ASSAY COMMENT: Evaluation of Pin1 enzyme inhibitory activity (Sensolyte Green Pin1 assay kit)
- Assay type: biochemical
- MEASUREMENT PARAMETERS: concentration at which the Pin1 enzyme activity is inhibited; 2 hours at room temperature, fluorescence 490 nm/520 nm; read-out: Pin 1 inhibition
pIC50: −log10 of the molar value.
// reported pIC50 per item
RECORDED ENDPOINT: pIC50

{"COMPOUND": "CCCCOc1ccc(S(=O)(=O)NCCCc2ccc(Cl)cc2)cc1", "TEST RESULT": "< 4.00"}
{"COMPOUND": "Cc1nc(C)n(CCCOc2ccc(S(=O)(=O)NCCCc3c[nH]c4ccc(Cl)cc34)cc2)c1C", "TEST RESULT": "> 6.00"}
{"COMPOUND": "CN1CCN(c2cc(Cl)nc(Nc3ccc(S(=O)(=O)NCCCc4c[nH]c5ccc(Cl)cc45)cc3)c2)CC1", "TEST RESULT": "> 6.00"}
{"COMPOUND": "O=S(=O)(NCCCc1c[nH]c2ccc(Cl)cc12)c1ccc(OCCCN2CCNCC2)c(F)c1", "TEST RESULT": "> 6.00"}
{"COMPOUND": "CC(C)N1CCN(CCCOc2ccc(S(=O)(=O)NCCCc3c[nH]c4ccccc34)cc2)CC1", "TEST RESULT": "4.00 to 5.00"}
{"COMPOUND": "O=S(=O)(NCCCc1c[nH]c2ccc(Cl)cc12)c1ccc(OC[C@@H](O)CN2CCNCC2)cc1", "TEST RESULT": "> 6.00"}
{"COMPOUND": "CN1CCN(C[C@H](O)COc2ccc(S(=O)(=O)NCCCc3c[nH]c4ccc(Cl)cc34)cc2)CC1", "TEST RESULT": "> 6.00"}
{"COMPOUND": "O=S(=O)(NCCCc1c[nH]c2ccc(Cl)cc12)c1ccc(OCCCN2CCC(O)CC2)c(F)c1", "TEST RESULT": "> 6.00"}
{"COMPOUND": "CN(C)CCCOc1ccc(S(=O)(=O)NCCCc2cn(C)c3ccccc23)cc1", "TEST RESULT": "< 4.00"}
{"COMPOUND": "CC(C)(c1ccccc1NS(=O)(=O)c1ccc(OCCCN2CCNCC2)cc1)c1c[nH]c2ccc(Cl)cc12", "TEST RESULT": "5.00 to 6.00"}
{"COMPOUND": "O=S(=O)(NCCCc1c[nH]c2ccc(F)cc12)c1ccc(OCCCN2CCN(CC(F)(F)F)CC2)cc1", "TEST RESULT": "5.00 to 6.00"}
{"COMPOUND": "O=S(=O)(NCCCc1c[nH]c2ccc(Cl)cc12)c1cccc(OCCCN2CCCCC2)c1", "TEST RESULT": "5.00 to 6.00"}
{"COMPOUND": "CNC1CN(CCCOc2ccc(S(=O)(=O)NCCCc3c[nH]c4ccc(Cl)cc34)cc2)C1", "TEST RESULT": "> 6.00"}
{"COMPOUND": "CN1CCN(CCCOc2ccc(S(=O)(=O)NCCCc3c[nH]c4ccc(F)cc34)cc2)CC1", "TEST RESULT": "> 6.00"}
{"COMPOUND": "O=S(=O)(NCC1CCc2[nH]c3ccccc3c2C1)c1ccc(OCCCN2CCNCC2)cc1 (stereo not shown)", "TEST RESULT": "> 6.00"}
{"COMPOUND": "O=S(=O)(NCCCc1c[nH]c2ccc(Cl)cc12)c1ccc(Oc2cccc(N3CCNCC3)c2)cc1", "TEST RESULT": "> 6.00"}

----------
- TARGET OR SYSTEM: Pin1 (Homo sapiens, UniProt Q13526)
- Construct: purchased Anaspec
- ASSAY COMMENT: Evaluation of Pin1 enzyme inhibitory activity (Sensolyte Green Pin1 assay kit)
- Format: biochemical
- MEASUREMENT PARAMETERS: concentration at which the Pin1 enzyme activity is inhibited; 2 hours at room temperature, fluorescence 490 nm/520 nm; read-out: Pin 1 inhibition
RECORDED ENDPOINT: IC50

{"COMPOUND": "CN(C)CCCOc1ccc(S(=O)(=O)NCCCn2cnc3ccccc32)cc1 [Example 40]", "RECORDED ENDPOINT": "IC50", "TEST RESULT": "> 100 µM"}
{"COMPOUND": "CCCCOc1ccc(S(=O)(=O)NCCCc2ccc(-c3ccccc3)cc2)cc1 [Example 1]", "RECORDED ENDPOINT": "IC50", "TEST RESULT": "> 100 µM"}
{"COMPOUND": "COC(=O)c1ccc(CCNS(=O)(=O)c2ccc(OCCCN(C)C)cc2)cc1 [Example 16]", "RECORDED ENDPOINT": "IC50", "TEST RESULT": "> 100 µM"}
{"COMPOUND": "COc1ccc2[nH]cc(CCCNS(=O)(=O)c3ccc(OCCCN4CCN(C)CC4)cc3)c2c1 [Example 68]", "RECORDED ENDPOINT": "IC50", "TEST RESULT": "1 to 10 µM"}
{"COMPOUND": "CCCCOc1ccc(S(=O)(=O)NCCC(=O)c2ccccc2)cc1 [Example 12]", "RECORDED ENDPOINT": "IC50", "TEST RESULT": "10 to 100 µM"}
{"COMPOUND": "CN1CCN(CCCOc2ccc(S(=O)(=O)N3CCC(c4c[nH]c5ccccc45)CC3)cc2)CC1 [Example 57]", "RECORDED ENDPOINT": "IC50", "TEST RESULT": "10 to 100 µM"}
{"COMPOUND": "CCCCOc1ccc(S(=O)(=O)NCCc2ccc(C(=O)OC)cc2)cc1 [Example 9]", "RECORDED ENDPOINT": "IC50", "TEST RESULT": "> 100 µM"}
{"COMPOUND": "CN1CCN(c2ccnc(Nc3ccc(S(=O)(=O)NCCCc4c[nH]c5ccc(Cl)cc45)cc3)c2)CC1 [Example 133]", "RECORDED ENDPOINT": "IC50", "TEST RESULT": "< 1 µM"}

----------
- TARGET OR SYSTEM: Pin1 (Homo sapiens, UniProt Q13526)
- Construct: purchased Anaspec
- ASSAY COMMENT: Evaluation of Pin1 enzyme inhibitory activity (Sensolyte Green Pin1 assay kit)
- Type: biochemical
- MEASUREMENT PARAMETERS: concentration at which the Pin1 enzyme activity is inhibited; 2 hours at room temperature, fluorescence 490 nm/520 nm; read-out: Pin 1 inhibition
pIC50: −log10 of the molar value.

{"LINE NOTATION": "O=S(=O)(Nc1ccccc1Cc1c[nH]c2ccc(Cl)cc12)c1ccc(OCCCN2CCNCC2)cc1", "pIC50": "> 6.00"}
{"LINE NOTATION": "CN1CCN(CCCNc2ccc(S(=O)(=O)NCCCc3c[nH]c4ccc(Cl)cc34)cc2)CC1", "pIC50": "> 6.00"}
{"LINE NOTATION": "CN1CCN(CCCOc2ccc(S(=O)(=O)N3CCC(c4c[nH]c5ccc(F)cc45)CC3)cc2)CC1", "pIC50": "4.00 to 5.00"}
{"LINE NOTATION": "Cc1[nH]c2ccc(Cl)cc2c1CCCNS(=O)(=O)c1ccc(OCCCN2CCNCC2)cc1", "pIC50": "5.00 to 6.00"}
{"LINE NOTATION": "CN1CCN(CCCOc2ccc(S(=O)(=O)Nc3ccccc3Cc3c[nH]c4ccc(Cl)cc34)cc2)CC1", "pIC50": "> 6.00"}
{"LINE NOTATION": "O=S(=O)(NCCCc1c[nH]c2ccc(Cl)cc12)c1ccc(OC[C@H](O)CN2CCNCC2)cc1", "pIC50": "> 6.00"}
{"LINE NOTATION": "O=S(=O)(NCCCc1c[nH]c2ccc(Cl)cc12)c1ccc(OCCCN2CCCNCC2)c(F)c1", "pIC50": "> 6.00"}
